Assay: Tertiary RLuc qRT-PCR qHTS assay for Zika virus inhibitors (AID 1347169); note: nearly all actives have a fitted effect of over 55% in size; note: potency is the fitted concentration of half-maximal effect
Settings: infected Vero cells, reporter luminescence, 48-72 h; series mostly up to 45.9 µM
Inconclusive results are not listed. Active and inactive are the calls of the source. Calls come from the whole dose curve; as a rule, active = well fitted inhibition curve with a large enough effect; inconclusive = small, poorly fitted or top-dose-only effect; inactive = no such curve, though single readings can be large or run the other way.
measured-parameter: Potency

>>> result("COc1ccccc1N1CCN(CCCNc2c(C)c(=O)n(C)c(=O)n2C)CC1")
"inactive"
>>> result("O=c1[nH]c(=S)[nH]c(-c2ccccc2)c1Cc1c(O)ccc2ccccc12")
"inactive"
>>> result("Cc1cccc(C(=O)NCN2CCN(c3ccccc3C#N)CC2)c1")
"inactive"
>>> result("Cn1c(=O)c2[nH]c(-c3ccc(S(=O)(=O)O)cc3)nc2n(C)c1=O")
"inactive"
>>> result("C=CCN1CCc2c(cc(O)c(O)c2Br)[C@@H](c2ccccc2)C1")
"11.7 µM (active)"

----------
Molecular target: Hexokinase-4 (Homo sapiens) + Glucokinase regulatory protein (Homo sapiens) (UniProt P35557+Q14397)
Sequence (P35557 whole entry, looked up): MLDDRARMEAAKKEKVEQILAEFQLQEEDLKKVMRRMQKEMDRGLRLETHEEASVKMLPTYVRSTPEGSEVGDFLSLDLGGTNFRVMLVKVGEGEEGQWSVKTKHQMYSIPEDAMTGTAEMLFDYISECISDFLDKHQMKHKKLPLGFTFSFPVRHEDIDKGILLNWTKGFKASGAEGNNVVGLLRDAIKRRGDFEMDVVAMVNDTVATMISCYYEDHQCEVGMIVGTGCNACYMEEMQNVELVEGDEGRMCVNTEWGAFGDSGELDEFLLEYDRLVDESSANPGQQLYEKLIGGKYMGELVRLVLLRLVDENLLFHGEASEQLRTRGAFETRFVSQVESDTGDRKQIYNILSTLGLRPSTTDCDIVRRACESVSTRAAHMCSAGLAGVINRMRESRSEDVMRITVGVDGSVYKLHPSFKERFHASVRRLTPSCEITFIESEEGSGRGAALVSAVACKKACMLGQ
Sequence (Q14397 whole entry, looked up): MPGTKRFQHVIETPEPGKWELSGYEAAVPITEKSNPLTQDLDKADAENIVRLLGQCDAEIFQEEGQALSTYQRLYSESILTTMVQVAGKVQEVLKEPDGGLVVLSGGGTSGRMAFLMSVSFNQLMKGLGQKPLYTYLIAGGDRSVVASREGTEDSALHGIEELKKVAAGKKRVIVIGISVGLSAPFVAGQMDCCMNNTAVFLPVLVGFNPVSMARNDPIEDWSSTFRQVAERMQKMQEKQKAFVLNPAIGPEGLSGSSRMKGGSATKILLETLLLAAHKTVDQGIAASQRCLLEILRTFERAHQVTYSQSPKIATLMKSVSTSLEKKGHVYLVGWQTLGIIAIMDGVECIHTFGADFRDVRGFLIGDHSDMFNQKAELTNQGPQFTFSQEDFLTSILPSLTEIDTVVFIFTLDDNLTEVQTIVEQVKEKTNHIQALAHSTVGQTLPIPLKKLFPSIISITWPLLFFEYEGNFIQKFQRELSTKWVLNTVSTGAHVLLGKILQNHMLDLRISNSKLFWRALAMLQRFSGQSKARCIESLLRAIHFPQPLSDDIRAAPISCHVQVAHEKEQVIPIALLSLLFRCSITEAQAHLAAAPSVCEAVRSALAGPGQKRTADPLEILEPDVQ
Assay: qHTS assay for inhibitors of recombinant human GCK-GKRP interaction: Diaphorase-coupled assay (AID 743205)
Conditions: G6PDH/diaphorase resorufin fluorescence; series mostly up to 57.5 µM
Activity calls are given as the source filed them. Calls follow the shape of the dose curve; as a rule, active = well fitted curve in the direction sought with a large enough effect; inconclusive = small, poorly fitted or top-dose-only effect, or another doubt; inactive = no such curve, though single readings can be large or run the other way.
measured-parameter: outcome

>>> result("CC(=O)NCCc1c[nH]c2ccc(O)cc12")
"inactive"
>>> result("Nc1ccc(N2C(=O)c3ccccc3C2=O)c(Cl)c1")
"inactive"
>>> result("CC[C@H](NC(=O)c1c(C)c(-c2ccccc2)nc2ccccc12)c1ccccc1")
"inactive"
>>> result("N#C/C(=C\\c1ccc(O)c(O)c1)C(=O)NCCc1ccccc1")
"inactive"
>>> result("Brc1c(Br)c(Br)c2[nH]cnc2c1Br")
"inactive"
>>> result("NC(N)=[N+]1CCc2ccccc2C1")
"inactive"
>>> result("O=C1Cc2c([nH]c3ccc(Br)cc23)-c2ccccc2N1")
"inactive"
>>> result("CCSC(=N)N")
"inactive"
>>> result("COC(=O)C(C)(N)Cc1ccc(O)cc1 (centres undefined)")
"inactive"
>>> result("CCC(=O)N1CCN(C(=O)c2ccccc2)CC1")
"inactive"
>>> result("OC[C@H]1O[C@H](n2cnc3c(N[C@H]4CCC[C@@H]4O)ncnc32)[C@H](O)[C@@H]1O")
"inactive"
>>> result("CN(C)CCC(c1ccc(Br)cc1)c1ccccn1 (centres undefined)")
"inactive"
>>> result("Oc1ccc(Cn2cc[nH]c2=S)cc1")
"inactive"
>>> result("NC1C=CC=C(C(=O)O)C1 (centres undefined)")
"inactive"
>>> result("O=C(OCCN1CCOCC1)C1(c2ccccc2)CCCCC1")
"inactive"
>>> result("N[C@@H](Cc1ccc(O)c(I)c1)C(=O)O")
"inactive"
>>> result("O=C1OC(=O)C2C3CCC(O3)C12 (centres undefined)")
"inactive"
>>> result("NC1(C(=O)O)CC1")
"inactive"
>>> result("O[Si](CCCN1CCCCC1)(c1ccc(F)cc1)C1CCCCC1 (centres undefined)")
"inactive"
>>> result("CC1CCN(CC[C@H]2CCCN2S(=O)(=O)c2cccc(O)c2)CC1")
"inactive"
>>> result("COc1cc(C(O)CO)ccc1O (centres undefined)")
"inactive"
>>> result("N[C@H]1CONC1=O")
"inactive"
>>> result("CC(N)=O")
"inactive"
>>> result("O=C1Nc2ccc(I)cc2/C1=C/c1cc(Br)c(O)c(Br)c1")
"inactive"
>>> result("N#Cc1cc2nc(O)c(O)nc2cc1[N+](=O)[O-]")
"inactive"
>>> result("CCCCC[C@H](CC(=O)NO)C(=O)N[C@H](C(=O)N1CCC[C@H]1CO)C(C)C")
"inactive"
>>> result("C=CCN1CCc2cc(O)c(O)cc2C(c2ccccc2)C1 (centres undefined)")
"inactive"
>>> result("C[C@](Cc1ccc(O)c(O)c1)(NN)C(=O)O")
"inactive"
>>> result("CC1=C(/C=C/C(C)=C/C=C/C(C)=C\\C(=O)O)C(C)(C)CCC1")
"inactive"
>>> result("N=C(N)c1ccc(N)cc1")
"inactive"
>>> result("NCC(O)(CS(=O)(=O)O)c1ccc(Cl)cc1 (centres undefined)")
"inactive"
>>> result("COC(=O)C(N)Cc1ccc(Cl)cc1 (centres undefined)")
"inactive"
>>> result("CCCCCCC/C=C\\CCCCCCCCC(=O)O")
"inactive"
>>> result("COc1cc(N)c(Cl)cc1C(=O)OCCN1CCCCC1")
"inactive"
>>> result("Nc1ncnc2c1nc(Sc1ccc(Cl)cc1)n2[C@H]1OC2COP(=O)(O)O[C@@H]2C1O (some centres undefined)")
"inactive"
>>> result("CSc1nc(N)c2ncn([C@@H]3O[C@H](COP(=O)(O)OP(=O)(O)O)C(O)[C@H]3O)c2n1 (some centres undefined)")
"inactive"
>>> result("CC[N+](CC)(CC)CC(=O)Nc1c(C)cccc1C")
"inactive"
>>> result("CCCCCCCCCC(=O)NC(CN1CCOCC1)[C@H](O)c1ccccc1 (some centres undefined)")
"inactive"
>>> result("O=[N+]([O-])c1cccc2cn[nH]c12")
"inactive"
>>> result("c1ccc(C(NCc2cccnc2)(c2ccccc2)c2ccccc2)cc1")
"inactive"
>>> result("NC1CCN(O)C1=O (centres undefined)")
"inactive"
>>> result("CCCCCC(O)CCCC(=O)O (centres undefined)")
"inactive"
>>> result("CC(N)=NCCCC[C@@H](N)C(=O)O")
"inactive"
>>> result("O=C(O)/C=C/c1cnc[nH]1")
"inactive"
>>> result("NC(N)=NC(N)=Nc1cccc(Cl)c1")
"inactive"
>>> result("O=c1[nH]ccc2c(O)cccc12")
"inactive"
>>> result("c1ccc2c(c1)CCC[C@H]2Nc1nc2ccccc2[nH]1")
"inactive"
>>> result("CCN(c1nc(N)c(C(=O)N=C(N)N)nc1Cl)C(C)C")
"inactive"
>>> result("C=CC[C@H](N)C(=O)O")
"inactive"
>>> result("CCCCCCCCCCCCCCSCC(=O)O")
"inactive"
>>> result("CCn1c(=O)[nH]c2cc(Cl)c(Cl)cc21")
"inactive"
>>> result("N[C@@H](CCCC(=O)O)C(=O)O")
"inactive"
>>> result("N#CC(=C(\\N)Sc1ccccc1N)/C(C#N)=C(/N)Sc1ccccc1N")
"inactive"
>>> result("CC(C)(C)c1cc(/C=C(\\C#N)C(N)=S)cc(C(C)(C)C)c1O")
"inactive"
